pIC50 values for the molecules below.
Biological target: Autotaxin (Homo sapiens, UniProt Q13822)
Test: Inhibition of human recombinant C-terminal FLAG-tagged autotaxin expressed in baculovirus-infected Sf9 cells assessed as FS-3 hydrolysis
pIC50: −log10 of the molar value.
Property: pIC50

INSERT INTO results (sample_smiles, property, observed_result) VALUES
  ('O=C(Nc1ccc2c(O)c(/N=N/c3ccccc3)c(S(=O)(=O)O)cc2c1)Nc1ccc2c(O)c(/N=N/c3ccc4cc(S(=O)(=O)O)ccc4c3)c(S(=O)(=O)O)cc2c1', 'pIC50', 4.72),
  ('CC(=O)Nc1ccc(/C=C/c2ccc(NC(=O)Nc3ccc(/C=C/c4ccc(NC(C)=O)cc4S(=O)(=O)O)c(S(=O)(=O)O)c3)cc2S(=O)(=O)O)c(S(=O)(=O)O)c1', 'pIC50', 4.64),
  ('COc1cc(-c2ccc(/N=N/c3c(S(=O)(=O)O)cc4cc(S(=O)(=O)O)cc(N)c4c3O)c(OC)c2)ccc1/N=N/c1c(S(=O)(=O)O)cc2cc(S(=O)(=O)O)cc(N)c2c1O', 'pIC50', 6.43);

====

Target: Autotaxin (Homo sapiens)
Test: Inhibition of human recombinant C-terminal FLAG-tagged autotaxin expressed in baculovirus-infected Sf9 cells assessed as FS-3 hydrolysis at 10 uM relative to control
Given measured inhibition, output Yes if it is greater than or equal to 50% and No if not.

INSERT INTO assay_data (sample_smiles, experimental_target, qualitative_label) VALUES
  ('Cc1ccc(C)c(/N=N/c2c(S(=O)(=O)O)cc3cc(NC(=O)Nc4ccc5c(O)c(/N=N/c6ccc7cc(S(=O)(=O)O)ccc7c6)c(S(=O)(=O)O)cc5c4)ccc3c2O)c1', 'Autotaxin (Homo sapiens)', 'Yes'),
  ('COc1ccc(/C=N/NC(=O)N/N=C/c2ccc(OC)c(S(=O)(=O)O)c2)cc1S(=O)(=O)O', 'Autotaxin (Homo sapiens)', 'No'),
  ('COc1cc(NC(=O)c2ccc(NC(=O)c3ccc(N)cc3)cc2)c(OC)cc1/N=N/c1cc(C)c(/N=N/c2cc(S(=O)(=O)O)c3cccc(S(=O)(=O)O)c3c2)cc1C', 'Autotaxin (Homo sapiens)', 'Yes'),
  ('O=S(=O)(O)c1ccc(O)c(/N=N/C=N/Nc2cc(S(=O)(=O)O)ccc2O)c1', 'Autotaxin (Homo sapiens)', 'No'),
  ('COc1ccccc1/N=N/c1c(S(=O)(=O)O)cc2cc(NC(=O)Nc3ccc4c(O)c(/N=N/c5ccc(S(=O)(=O)O)cc5C)c(S(=O)(=O)O)cc4c3)ccc2c1O', 'Autotaxin (Homo sapiens)', 'Yes'),
  ('Nc1ccc(NC(=O)c2ccc(C(=O)Nc3ccc4c(O)cc(S(=O)(=O)O)cc4c3)cc2)cc1', 'Autotaxin (Homo sapiens)', 'No');

====

Biological target: Autotaxin (Homo sapiens)
Assay: Inhibition of human recombinant C-terminal FLAG-tagged autotaxin expressed in baculovirus-infected Sf9 cells assessed as FS-3 hydrolysis at 10 uM relative to control
Property: inhibition (%)

INSERT INTO measurements (compound, property, unit_info, observed_result) VALUES
  ('O=C(Nc1ccc2c(O)c(/N=N/c3ccccc3)c(S(=O)(=O)O)cc2c1)Nc1ccc2c(O)c(/N=N/c3ccccc3)c(S(=O)(=O)O)cc2c1', 'inhibition', '%', 23),
  ('Nc1ccc2cc(S(=O)(=O)O)c(/N=N/c3ccc(-c4ccc(/N=N/c5c(S(=O)(=O)O)cc6cc(S(=O)(=O)O)c(/N=N/c7cccc([N+](=O)[O-])c7)c(N)c6c5O)cc4)cc3)c(O)c2c1', 'inhibition', '%', 65),
  ('O=S(=O)(O)c1ccccc1/C=N/NC(=S)N/N=C/c1ccccc1S(=O)(=O)O', 'inhibition', '%', 1),
  ('CCOc1cc(-c2ccc(/N=N/c3c(S(=O)(=O)O)cc4ccc(N)cc4c3O)cc2)ccc1/N=N/c1c(S(=O)(=O)O)cc2ccc(N)cc2c1O', 'inhibition', '%', 39),
  ('O=C1Nc2ccc(S(=O)(=O)O)cc2/C1=N/Nc1ccccc1[N+](=O)[O-]', 'inhibition', '%', 8),
  ('O=C(Nc1ccccc1)C(=N/Nc1cc(S(=O)(=O)O)ccc1O)/N=N/c1cc(S(=O)(=O)O)ccc1O', 'inhibition', '%', 0),
  ('O=C(N/N=C/c1ccc(O)c(S(=O)(=O)O)c1)N/N=C/c1ccc(O)c(S(=O)(=O)O)c1', 'inhibition', '%', 6),
  ('Nc1c(S(=O)(=O)O)cc(Nc2cccc(S(=O)(=O)/C=C/S(=O)(=O)O)c2)c2c1C(=O)c1ccccc1C2=O', 'inhibition', '%', 43),
  ('O=C(Nc1ccc(/C=C/c2ccc(NC(=O)c3cc(S(=O)(=O)O)c4cccnc4c3O)cc2S(=O)(=O)O)c(S(=O)(=O)O)c1)c1cc(S(=O)(=O)O)c2cccnc2c1O', 'inhibition', '%', 53),
  ('Cc1c(N)cc(S(=O)(=O)O)c(/N=N/c2ccc(-c3ccc(/N=N/c4c(S(=O)(=O)O)cc5cc(S(=O)(=O)O)c(/N=N/c6cccc([N+](=O)[O-])c6)c(N)c5c4O)cc3)cc2)c1N', 'inhibition', '%', 68),
  ('O=C(N/N=C/c1ccccc1S(=O)(=O)O)C(=O)N/N=C/c1ccccc1S(=O)(=O)O', 'inhibition', '%', -2),
  ('O=C(Nc1ccc(C(=O)Nc2cc(S(=O)(=O)O)cc3cccc(S(=O)(=O)O)c23)cc1)Nc1ccc(C(=O)Nc2cc(S(=O)(=O)O)cc3cccc(S(=O)(=O)O)c23)cc1', 'inhibition', '%', -5),
  ('CC1=NN(c2ccc(/C=C/c3ccc(NC(=O)Nc4ccc(/C=C/c5ccc(N6N=C(C)C(/N=N/c7ccccc7C(=O)O)C6=O)cc5S(=O)(=O)O)c(S(=O)(=O)O)c4)cc3S(=O)(=O)O)c(S(=O)(=O)O)c2)C(=O)C1/N=N/c1ccccc1C(=O)O (configuration not stated)', 'inhibition', '%', 13),
  ('Nc1cc(C(=O)Nc2ccc(S(=O)(=O)O)cc2)ccc1C(=O)Nc1ccc(S(=O)(=O)O)cc1', 'inhibition', '%', -2),
  ('O=C(Nc1ccc(C(=O)Nc2ccc3c(O)cc(S(=O)(=O)O)cc3c2)cc1)c1ccccc1', 'inhibition', '%', 21),
  ('O=C(Nc1cc(S(=O)(=O)O)cc2cc(S(=O)(=O)O)c(/N=N/c3cc(Nc4nc(O)nc(Nc5ccc(S(=O)(=O)O)cc5)n4)ccc3S(=O)(=O)O)c(O)c12)c1ccccc1', 'inhibition', '%', 76),
  ('O=C(Nc1ccc(S(=O)(=O)c2ccc(NC(=O)Nc3ccc4cc(S(=O)(=O)O)ccc4c3)cc2)cc1)Nc1ccc2cc(S(=O)(=O)O)ccc2c1', 'inhibition', '%', 43);

Where these numbers come from: ChEMBL document CHEMBL1156229
